As shown below, each of these molecules has a reported Max Editing value.
System: TTR
experimental details: TTR editing dose response (EC50, maximum editing) in primary cyno hepatocytes treated with LNP formulated U-depleted Spy Cas9 mRNA and sgRNAs
Assay type: cell-based, cynomolgus monkey
settings: LNP formulated U-depleted Spy Cas9 mRNA and cyno specific sgRNAs
Strand notation (5' to 3'): a small letter for the sugar, then the base; units joined by * are phosphorothioate-linked, units joined directly phosphodiester-linked; [ ] holds rarer units or linkages, { } end groups; capitals alone tell only the bases. m = 2'-O-methyl; r = 2'-OH (RNA)
experimental readout: Max Editing (%)

G000505: TTR Cyno specific sgRNA modified sequence, SEQ ID NO: 117; guide sequence of CR005365 (nucleic acid) guide: mC*mA*mU*rUrGrArCrArGrCrArGrGrArCrUrGrCrCrUrGrUrUrUrUrArGrAmGmCmUmAmGmAmAmAmUmAmGmCrArArGrUrUrArArArArUrArArGrGrCrUrArGrUrCrCrGrUrUrArUrCrAmAmCmUmUmGmAmAmAmAmAmGmUmGmGmCmAmCmCmGmAmGmUmCmGmGmUmGmCmU*mU*mU*mU    99.97
G000502: TTR Cyno specific sgRNA modified sequence, SEQ ID NO: 114; guide sequence of CR000689; cross homologous between mouse and cyno (nucleic acid) guide: mA*mC*mA*rCrArArArUrArCrCrArGrUrCrCrArGrCrGrGrUrUrUrUrArGrAmGmCmUmAmGmAmAmAmUmAmGmCrArArGrUrUrArArArArUrArArGrGrCrUrArGrUrCrCrGrUrUrArUrCrAmAmCmUmUmGmAmAmAmAmAmGmUmGmGmCmAmCmCmGmAmGmUmCmGmGmUmGmCmU*mU*mU*mU    100.05
G000503: TTR Cyno specific sgRNA modified sequence, SEQ ID NO: 115; guide sequence of CR005372 (nucleic acid) guide: mA*mA*mA*rArGrGrCrUrGrCrUrGrArUrGrArGrArCrCrGrUrUrUrUrArGrAmGmCmUmAmGmAmAmAmUmAmGmCrArArGrUrUrArArArArUrArArGrGrCrUrArGrUrCrCrGrUrUrArUrCrAmAmCmUmUmGmAmAmAmAmAmGmUmGmGmCmAmCmCmGmAmGmUmCmGmGmUmGmCmU*mU*mU*mU    83.41
G000506: TTR Cyno specific sgRNA modified sequence, SEQ ID NO: 118; guide sequence of CR005366 (nucleic acid) guide: mA*mU*mA*rCrCrArGrUrCrCrArGrCrGrArGrGrCrArGrGrUrUrUrUrArGrAmGmCmUmAmGmAmAmAmUmAmGmCrArArGrUrUrArArArArUrArArGrGrCrUrArGrUrCrCrGrUrUrArUrCrAmAmCmUmUmGmAmAmAmAmAmGmUmGmGmCmAmCmCmGmAmGmUmCmGmGmUmGmCmU*mU*mU*mU    99.18
G000504: TTR Cyno specific sgRNA modified sequence, SEQ ID NO: 116; guide sequence of CR005364 (nucleic acid) guide: mA*mA*mA*rGrGrCrUrGrCrUrGrArUrGrArGrArCrCrUrGrUrUrUrUrArGrAmGmCmUmAmGmAmAmAmUmAmGmCrArArGrUrUrArArArArUrArArGrGrCrUrArGrUrCrCrGrUrUrArUrCrAmAmCmUmUmGmAmAmAmAmAmGmUmGmGmCmAmCmCmGmAmGmUmCmGmGmUmGmCmU*mU*mU*mU    98.04
